# SUBJECT OF TEST: CDK4/cyclin D3 (Homo sapiens, UniProt P11802)
# Construct: made in house; host or cells: insect cells (baculovirus co-infection)
# Sequence (P11802 whole entry): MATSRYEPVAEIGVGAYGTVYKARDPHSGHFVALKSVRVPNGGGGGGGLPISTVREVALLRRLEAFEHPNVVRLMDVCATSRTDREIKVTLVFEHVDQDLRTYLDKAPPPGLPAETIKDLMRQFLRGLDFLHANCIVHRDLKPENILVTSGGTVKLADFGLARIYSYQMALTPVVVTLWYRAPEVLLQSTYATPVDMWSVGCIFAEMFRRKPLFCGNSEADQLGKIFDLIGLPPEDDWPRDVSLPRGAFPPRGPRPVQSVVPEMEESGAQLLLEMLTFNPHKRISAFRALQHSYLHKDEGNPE
# Sequence (P30281 1-264 partner limits assumed): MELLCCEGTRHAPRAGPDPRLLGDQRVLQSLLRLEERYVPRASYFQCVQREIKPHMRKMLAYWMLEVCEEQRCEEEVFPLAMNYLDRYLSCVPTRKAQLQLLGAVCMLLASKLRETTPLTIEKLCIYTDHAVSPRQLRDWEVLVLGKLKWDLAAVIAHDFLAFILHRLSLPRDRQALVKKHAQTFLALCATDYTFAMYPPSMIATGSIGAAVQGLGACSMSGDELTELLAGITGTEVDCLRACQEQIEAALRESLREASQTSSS
# TEST DETAILS: Inhibition of CDK4/Cyclin D retinoblastoma kinase activity;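 on % Inhib CDK4/D @ 1 μM: relative to DMSO control wells without compound minus no-enzyme background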
# Format: biochemical
# DETAILS: test compound at 1 μM (head line shifted: 'mM' printed beside 'Structure'); read-out: % Inhib CDK4/D @ 1 μM
REPORTED METRIC: inhibition at 1 µM (%)
One number for each entry, in %.

Below: 2 compounds and their reported inhibition at 1 µM.
> print(dat)
                                   compound     reported.metric  numeric.result
1  Nc1nc(Nc2ccc([S+]([O-])CC(=O)Nc3ccccc3)cc2)sc1C(=O)c1c(Cl)cccc1Cl (stereo not drawn)  inhibition at 1 µM            80.7
2  Nc1nc(Nc2cccc([S+]([O-])CCO)c2)sc1C(=O)c1c(Cl)cccc1Cl (stereo not drawn)  inhibition at 1 µM            57.7

Provide the reported inhibition at 1 µM of each entry below, same order.
1. CCOCCS(=O)(=O)c1ccc(Nc2nc(N)c(C(=O)c3c(Cl)cccc3Cl)s2)cc1
2. Nc1nc(Nc2cccc(SCc3ncon3)c2)sc1C(=O)c1c(Cl)cccc1Cl
3. CC(C)OC(=O)CCS(=O)(=O)c1ccc(N(C)c2nc(N)c(C(=O)c3c(Cl)cccc3Cl)s2)cc1

**Result**
[-12, 52.2, 21.5]

Provide the reported inhibition at 1 µM of each entry below, same order.
1. C=CCC[S+]([O-])c1ccc(Nc2nc(N)c(C(=O)c3c(Cl)cccc3Cl)s2)cc1 (stereo not drawn)
2. CC(C)CCC[S+]([O-])c1cccc(Nc2nc(N)c(C(=O)c3c(Cl)cccc3Cl)s2)c1 (stereo not drawn)

**Result**
1: 62.5; 2: 10.4

Provide the reported inhibition at 1 µM of each entry below, same order.
1. CCC(CC)CSc1ccc(Nc2nc(N)c(C(=O)c3c(Cl)cccc3Cl)s2)cc1
2. CN1CCCC1CCSc1ccc(Nc2nc(N)c(C(=O)c3c(Cl)cccc3Cl)s2)cc1 (stereo not drawn)

**Result**
49.6
82.9

Provide the reported inhibition at 1 µM of each entry below, same order.
1. CC(C)CCOC(=O)C[S+]([O-])c1cccc(Nc2nc(N)c(C(=O)c3c(Cl)cccc3Cl)s2)c1 (stereo not drawn)
2. CCOCCSc1cccc(Nc2nc(N)c(C(=O)c3c(Cl)cccc3Cl)s2)c1

**Result**
1. 34.3
2. 73.7

---

# SUBJECT OF TEST: CDK4/cyclin D3 (Homo sapiens, UniProt P11802)
# Construct: made in house; host or cells: insect cells (baculovirus co-infection)
# TEST DETAILS: Inhibition of CDK4/Cyclin D retinoblastoma kinase activity
# Assay type: biochemical
# DETAILS: test compound at 0.03 (unit cell empty, head line shifted; μM); read-out: % Inhib CDK4/D @ 0.03
REPORTED METRIC: inhibition at 0.03 µM
Include the unit after the number when you answer.

> print(dat)
                                   molecule                           subject.of.test  result
1  COCCSc1cccc(Nc2nc(N)c(C(=O)c3c(Cl)cccc3Cl)s2)c1 [DD(54)]  CDK4/cyclin D3 (Homo sapiens, UniProt P11802)     20%
2  CC(C)CCOC(=O)CSc1cccc(Nc2nc(N)c(C(=O)c3c(Cl)cccc3Cl)s2)c1 [DD(71)]  CDK4/cyclin D3 (Homo sapiens, UniProt P11802)     77%
3  CN1CCCC(C[S+]([O-])c2ccc(Nc3nc(N)c(C(=O)c4c(Cl)cccc4Cl)s3)cc2)C1 (stereo not shown) [DD(107)]  CDK4/cyclin D3 (Homo sapiens, UniProt P11802)    -11%

Alright, here's another molecule for you.
**Query** # get_value(readout='inhibition at 0.03 µM', item= COc1cccc(CSc2ccc(Nc3nc(N)c(C(=O)c4c(Cl)cccc4Cl)s3)cc2)c1 [DD(17)] )
**Result** -9.5%
